System: LXRa homodimer (NR concentration 270 nM)
testSummary: PBM binding z-score (relative to random genomic background probes); higher = stronger binding; sequences stand for … in GC…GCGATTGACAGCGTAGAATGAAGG

{"seqText": "GCAGACAGCTGAAACGCAGGTAACTCAGGGTGGC", "PBM binding z-score": -0.369}
{"seqText": "ACTATTAGTTGAGACCAGGGCAACCGATAGGTTG", "PBM binding z-score": -0.0882}
{"seqText": "GATGCAGGGTCAGCTAGAGGCCAGAGTATGGAAA", "PBM binding z-score": -0.565}
{"seqText": "CCGAGTAGGTTATGGGGCATTCACGCAACGGTGA", "PBM binding z-score": -0.0835}
{"seqText": "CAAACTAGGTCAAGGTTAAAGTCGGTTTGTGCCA", "PBM binding z-score": 1.17}
{"seqText": "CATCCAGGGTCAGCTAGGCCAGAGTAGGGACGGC", "PBM binding z-score": -0.152}
{"seqText": "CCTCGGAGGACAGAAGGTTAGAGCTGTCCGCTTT", "PBM binding z-score": -0.236}
{"seqText": "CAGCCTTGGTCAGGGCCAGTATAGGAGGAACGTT", "PBM binding z-score": -0.824}
{"seqText": "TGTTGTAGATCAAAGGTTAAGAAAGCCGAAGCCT", "PBM binding z-score": 0.185}
{"seqText": "ATATGTAGGTTCAGGGTCATTCAGGTTGGTTCGC", "PBM binding z-score": 2.81}
{"seqText": "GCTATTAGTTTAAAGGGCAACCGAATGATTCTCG", "PBM binding z-score": 0.643}
{"seqText": "GATACAGGGACAAGGCCAGAGTACGCGTATTGAT", "PBM binding z-score": -0.318}
{"seqText": "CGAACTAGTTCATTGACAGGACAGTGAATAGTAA", "PBM binding z-score": 0.0589}
{"seqText": "ACTCGGCGGACAAAGGTCAGAGCTACGCCAGTGA", "PBM binding z-score": 1.32}
{"seqText": "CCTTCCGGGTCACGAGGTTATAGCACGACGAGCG", "PBM binding z-score": 0.67}
{"seqText": "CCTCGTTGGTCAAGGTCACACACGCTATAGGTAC", "PBM binding z-score": 2.8}
{"seqText": "CGTCCAAGTTCAACTAAGGTAACGTAAAGCACGC", "PBM binding z-score": 1.01}
{"seqText": "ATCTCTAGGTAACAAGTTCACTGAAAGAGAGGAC", "PBM binding z-score": 1.22}
{"seqText": "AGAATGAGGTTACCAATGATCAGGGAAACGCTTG", "PBM binding z-score": -0.495}
{"seqText": "ATATGTAGGTTAGCTGGGGTGATTCAGACTAGGC", "PBM binding z-score": 0.289}
{"seqText": "CCTACTGGGCCATCAGGTCATTTATATCAACGTT", "PBM binding z-score": 1.99}
{"seqText": "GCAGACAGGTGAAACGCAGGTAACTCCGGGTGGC", "PBM binding z-score": -0.496}
{"seqText": "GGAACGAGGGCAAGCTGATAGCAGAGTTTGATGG", "PBM binding z-score": -0.473}
{"seqText": "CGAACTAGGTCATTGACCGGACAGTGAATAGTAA", "PBM binding z-score": 2.4}
{"seqText": "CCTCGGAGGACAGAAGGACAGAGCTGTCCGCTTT", "PBM binding z-score": -0.63}
{"seqText": "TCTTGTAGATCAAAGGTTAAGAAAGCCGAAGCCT", "PBM binding z-score": -0.166}
{"seqText": "TCTCGGAAGACACGAAAGGTCAGAGCTCGACATC", "PBM binding z-score": 1.85}
{"seqText": "CGAACTAGGCCATCCAGGACAGTGAATACATTGA", "PBM binding z-score": -0.0398}
{"seqText": "AGAATGAGGTTAAGATCAGCGAAACAGAATACAT", "PBM binding z-score": -0.0518}
{"seqText": "GCTAGTTGGTCAGGAAAAGGTCACACACCGGTCG", "PBM binding z-score": 3.43}
{"seqText": "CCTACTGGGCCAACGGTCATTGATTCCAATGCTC", "PBM binding z-score": 0.674}
{"seqText": "CCTTACGGGTCACTGACAGGTTATAGCTTTTGGA", "PBM binding z-score": 0.331}
{"seqText": "TGAATGAGGTTACAAGATCAGGGAACGTTGCAAA", "PBM binding z-score": -0.302}
{"seqText": "CGAACTAGGTCATTGACAGGAAAGTGAATAGTAA", "PBM binding z-score": 0.115}
{"seqText": "TCATATAGGTAATACAGGTGACAGTCGGCATCTA", "PBM binding z-score": 0.299}
{"seqText": "ATCTCTAGCTAAAAGTTCAGTGAATCCCGAGGAT", "PBM binding z-score": 1.36}
{"seqText": "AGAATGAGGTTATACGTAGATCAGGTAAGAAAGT", "PBM binding z-score": 0.183}
{"seqText": "TGAATTAGGTTAAAGATCAGGGAACGTGGCGTCG", "PBM binding z-score": 0.0716}
{"seqText": "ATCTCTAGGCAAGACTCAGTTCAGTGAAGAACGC", "PBM binding z-score": -0.0156}
{"seqText": "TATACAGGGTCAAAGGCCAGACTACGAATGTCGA", "PBM binding z-score": 2.32}
{"seqText": "CCTACTGGGCCAATCAGAGGTCATTGATCATATG", "PBM binding z-score": 7.72}
{"seqText": "ATCGAAAGGTCGAAGGTGAGTATACCCACCCGAA", "PBM binding z-score": 0.189}
{"seqText": "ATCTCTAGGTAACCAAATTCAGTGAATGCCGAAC", "PBM binding z-score": 0.385}
{"seqText": "CCTAGCAGGCCAATCTTGGTCACTCAAGGCTTGA", "PBM binding z-score": -0.7}
{"seqText": "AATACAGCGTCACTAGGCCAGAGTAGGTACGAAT", "PBM binding z-score": -0.588}
{"seqText": "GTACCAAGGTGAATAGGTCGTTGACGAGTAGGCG", "PBM binding z-score": -0.12}
{"seqText": "AATACAGGGTCTCTAGGCCAGAGTAGGTACGAAT", "PBM binding z-score": -0.356}
{"seqText": "TCTCGCAGGACACGAAAGGTCAGAGCTCGACATC", "PBM binding z-score": 2.98}
{"seqText": "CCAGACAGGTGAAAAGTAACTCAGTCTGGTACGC", "PBM binding z-score": -0.078}
{"seqText": "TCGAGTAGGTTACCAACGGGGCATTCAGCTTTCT", "PBM binding z-score": -0.787}
{"seqText": "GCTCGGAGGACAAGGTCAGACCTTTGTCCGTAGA", "PBM binding z-score": -0.219}

Taken from the supplement of paper PMC6555819.
